Property: IC50; scope: individual compounds
# system-name: recombinant human Syk (GST-hSyk fusion protein) (Homo sapiens, UniProt P43405)
# Construct: purchased Carna Biosciences 08-176
# protocol-details: Homogeneous Time-Resolved Fluorescence (HTRF) assay for the recombinant human Syk enzyme
# Format: biochemical
# setup-conditions: IC50 class; 10-dose titration, 25 μM ATP; read-out: rhSYK Activity

Example entries begin here.
compound | result
Cc1cc(Nc2nccc(C(F)(F)F)n2)cc(-c2cnn(C[C@@H]3OC(=O)N[C@H]3C)c2)c1 (single isomer, unassigned) | ≤ 100 nM
Cc1cc(Nc2nccc(C(F)F)n2)cc(-c2cnn(CC(O)CC3(O)CCCCC3)c2)c1 (stereo not shown) | ≤ 100 nM
Cc1cc(Nc2cc(C(F)(F)F)ccn2)nc(-c2cnn(CC(=O)O)c2)c1 | ≤ 100 nM
Cc1cc(Nc2nccc(C(F)F)n2)cc(-c2cnn(C(C)C3CNC(=O)C3)c2)c1 (stereo not shown) [Example 2.67] | ≤ 100 nM
Cc1cc(Nc2nccc(C(F)F)n2)cc(-c2cnn(CC3OC(=O)NC3(C)C)c2)c1 (stereo not shown) [Example 3.103] | ≤ 100 nM

INPUT: Given the compound Cc1cc(Nc2nccc(C3CC3)n2)cc(-c2cnn(CC3CNC(=O)O3)c2)c1 (stereo not shown) [Example 2.33] , write its reported IC50.
OUTPUT: ≤ 100 nM

INPUT: Given the compound `Cc1cc(Nc2nccc(C(F)F)n2)cc(-c2cnn(CC(C)(C)N)c2)c1` , write its reported IC50.
OUTPUT: ≤ 100 nM

INPUT: Given the compound `Cc1cc(Nc2nccc(C)n2)cc(-c2cnn(C[C@@H](O)C(=O)O)c2)c1` , write its reported IC50.
OUTPUT: ≤ 100 nM

INPUT: Given the compound Cc1cc(Nc2nccc(C(F)(F)F)n2)cc(-c2cnn(CC(C)(O)CO)c2)c1 (single isomer, unassigned) [Example 21.2] , write its reported IC50.
OUTPUT: ≤ 100 nM

INPUT: Given the compound Cc1cc(Nc2ncccn2)cc(-c2cnn(CC3CNC(=O)O3)c2)c1 (stereo not shown) [Example 3.115] , write its reported IC50.
OUTPUT: ≤ 100 nM

INPUT: Given the compound Cc1cc(Nc2nccc(C(F)(F)F)n2)cc(-c2cnn(C[C@@H](O)C(N)=O)c2)c1 [Example 8.2] , write its reported IC50.
OUTPUT: ≤ 100 nM

INPUT: Given the compound Cc1cc(Nc2nccc(C(F)(F)F)n2)cc(-c2cnn(C(C)C(N)=O)c2)c1 (stereo not shown) [Example 8.20] , write its reported IC50.
OUTPUT: ≤ 100 nM
